B1: STK38L (parent)
chain: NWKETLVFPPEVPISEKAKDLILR

- Variants of: B1
- Assay overview: protein stability index of a GFP-peptide fusion (GPS, HEK-293T) (PSI 1-6); higher = more stable;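 note: lentivirally expressed fusions sorted by FACS into six bins by GFP to DsRed ratio, PSI derived from sequencing read proportions per bin multiplied by bin number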
- Condition: c terminus: a fixed tail appended
Note to self: values exactly at 3 are Met. So protein stability index at or above 3 is Met, below is Not met.

Answered cases to consult:
>>> assigned_category("K17W")
"Not met"
>>> assigned_category("I22M")
"Met"
>>> assigned_category("E16H")
"Not met"
>>> assigned_category("P10W")
"Not met"
>>> assigned_category("K3R")
"Met"
>>> assigned_category("S15T")
"Met"
>>> assigned_category("E11S")
"Not met"
>>> assigned_category("K3M")
"Not met"
>>> assigned_category("T5H")
"Met"
>>> assigned_category("V12K")
"Met"

Q: Could you verify whether the entry `V7C` shows protein stability index of no less than 3?
A: Met

Q: Could you verify whether the entry `P13C` shows protein stability index of no less than 3?
A: Not met

Q: Could you verify whether the entry `R24C` shows protein stability index of no less than 3?
A: Not met

Q: Could you verify whether the entry `K19T` shows protein stability index of no less than 3?
A: Met

Q: Could you verify whether the entry `V7P` shows protein stability index of no less than 3?
A: Met

Q: Could you verify whether the entry `E11T` shows protein stability index of no less than 3?
A: Not met

Q: Could you verify whether the entry `E4W` shows protein stability index of no less than 3?
A: Not met

Q: Could you verify whether the entry `A18M` shows protein stability index of no less than 3?
A: Not met

Q: Could you verify whether the entry `W2A` shows protein stability index of no less than 3?
A: Met

Q: Could you verify whether the entry `V12W` shows protein stability index of no less than 3?
A: Met

Q: Could you verify whether the entry `K3C` shows protein stability index of no less than 3?
A: Not met
